Reported Percent Control values follow for various compounds
# Test system: BIKE
# Construct: gene BMP2K
# CONDITION_DETAILS: Compound Concentration (nM):1000;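 also: KINOMEscan scanMAX binding as percent activity remaining versus control; lower means stronger binding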
State the answer as a number, implicitly in %.

# annotated cases, reported Percent Control shown
compound="COc1ccccc1-c1cc(/C=C2\\C(=O)Nc3ncc(Br)cc32)cc(Br)c1O [GW442130X]" units_text=% quantitative_readout=100
compound=CCc1ccc(Oc2nccc(-c3c(-c4ccc(F)cc4)ncn3C3CCNCC3)n2)cc1 units_text=% quantitative_readout=100
compound=CCn1c(-c2nonc2N)nc2c(C#CC(C)(C)O)nc(OCCNC)cc21.Cl units_text=% quantitative_readout=75
compound="NS(=O)(=O)c1ccc(N/N=C2\\C(=O)Nc3ccc(C(=O)NCCc4c[nH]cn4)cc32)cc1 [GW300660X]" units_text=% quantitative_readout=100
compound="COc1cc2ncnc(Nc3ccc4c(cnn4Cc4ccccc4)c3)c2cc1OC.Cl [GW282449A]" units_text=% quantitative_readout=100

In: Would you mind telling me what Percent Control value was observed for COc1ccc(COc2ccc(Cc3cnc(N)nc3N)cc2OC)cc1 [GW632580X] ?
Out: 94

In: Next compound up: CCS(=O)(=O)c1ccc(OC)c(Nc2ncc(-c3cccc(F)c3)o2)c1 [GW621970X]
Out: 100

In: Next compound up: O=C1Nc2ccc(C(=O)c3ccco3)cc2C1=Cc1cc(Cl)c(O)c(Cl)c1 [GW406108X]
Out: 59

In: Next compound up: COc1cc(C=NNc2ncnc3c2cnn3-c2ccccc2)ccc1O [GW513184X]
Out: 25

====

# Tested on: SNARK
# Construct: gene NUAK2
# CONDITION_DETAILS: Compound Concentration (nM):1000
One threshold, 90%, splits the recorded Percent Control values: lower ones are condition met, equal or higher ones are condition not met.

molecule="NS(=O)(=O)c1ccc(N/N=C2\\C(=O)Nc3ccc(C(=O)NCc4ccncc4)cc32)cc1 [GW300657X]" answer_label="condition met"
molecule="COc1cc2ncnc(Nc3ccc4c(cnn4Cc4ccccc4)c3)c2cc1OC.Cl [GW282449A]" answer_label="condition not met"
molecule="CN(C)c1cc2c(Nc3ccc4c(cnn4Cc4ccccc4)c3)ncnc2cn1 [GW282974X]" answer_label="condition not met"
molecule="Cl.c1ccc(Cc2nc3ccc(Nc4ncnc5ccccc45)cc3[nH]2)cc1 [GR269666A]" answer_label="condition not met"
molecule="COc1cc(/C=N/Nc2ncnc3[nH]ncc23)ccc1O [GW578748X]" answer_label="condition met"

In: Please let me know if COc1cc2ncn(-c3cc(O[C@H](C)c4ccccc4Cl)c(C(N)=O)s3)c2cc1OC [GSK237701A] shows Percent Control below 90%.
Out: condition met

In: Next molecule up: CC1=C(C(=O)Nc2ccc3[nH]ncc3c2)C(c2ccc(Cl)c(Cl)c2)CC(=O)N1 (centres unmarked) [GSK299115A]
Out: condition met

In: Next molecule up: COc1cc(C)c(N(C)C(=O)CN(C)C)cc1Nc1nc(Nc2cccc(F)c2C(N)=O)c2cc[nH]c2n1
Out: condition not met

In: Next molecule up: CCc1ccc(Oc2nccc(-c3c(-c4ccc(F)cc4)ncn3C3CCNCC3)n2)cc1
Out: condition met

In: Next molecule up: COc1cc(C=NNc2ncnc3c2cnn3-c2ccccc2)ccc1O [GW513184X]
Out: condition met

In: Next molecule up: Cl.O=C(O[C@H]1CN[C@H](C#Cc2cc3ncnc(Nc4ccc5c(cnn5Cc5ccccc5)c4)c3s2)C1)N1CCOCC1 [GSK200398A]
Out: condition not met

In: Next molecule up: CN1CCN(C(=O)c2ccc(NC(=O)Nc3ccc(N(C)c4ccnc(Nc5ccc(CS(C)(=O)=O)cc5)n4)cc3)cc2)CC1.Cl [GW830263A]
Out: condition met

In: Next molecule up: CCS(=O)(=O)c1ccc(OC)c(Nc2ncc(-c3cccc(OC)c3)o2)c1 [GW580509X]
Out: condition not met

In: Next molecule up: CC1=C(C(=O)Nc2ccc3[nH]ncc3c2)C(c2ccc3ccccc3c2)CC(=O)N1 (centres unmarked) [GSK270822A]
Out: condition met
